Reported Population Healthy Nuclei (%) values are given for each entry in this list.
System: Fibroblast
Experiment: Multiplex assay against human fibroblast
Type: toxicity, cell-based
Settings: 12 h, 1 µM, compound concentration 1 uM, replicate 1

Study these solved cases before continuing.
| Molecule | Population Healthy Nuclei (%) |
| --- | --- |
| CCCCC[C@H](O)/C=C/[C@H]1[C@H](O)CC(=O)[C@@H]1CCCCCCC(=O)O | 71% |
| COc1cc2nc(N3CCN(C(=O)COc4c(OC)cccc4C(C)C)CC3)nc(N)c2cc1OC.Cl.Cl | 51% |
| Cc1nn(C)c2nc(NNC(=O)Nc3cc(Cl)nc(Cl)c3)cc(C(C)C)c12 | 68% |

Query :: Note Population Healthy Nuclei (%) for the molecule shown: Nc1nc(-c2ccco2)c2cnn(Cc3ccccc3F)c2n1
Result :: 78%

Query :: Note Population Healthy Nuclei (%) for the molecule shown: C[C@@H]1CC(=O)Nc2cccc(-c3ccc4c(c3)c(-c3cnn(C)c3)nn4C)c2N1
Result :: 63%

Query :: Note Population Healthy Nuclei (%) for the molecule shown: O=C(NCCNCC(O)COc1ccc(O)cc1)N1CCOCC1.O=C(NCCNCC(O)COc1ccc(O)cc1)N1CCOCC1.O=C(O)/C=C/C(=O)O (centres undefined) [XAMOTEROL FUMARATE]
Result :: 67%

Query :: Note Population Healthy Nuclei (%) for the molecule shown: Cl.Cl.OCCOCCN1CCN(C(c2ccccc2)c2ccc(Cl)cc2)CC1 (centres undefined) [HYDROXYZINE HYDROCHLORIDE]
Result :: 75%

Query :: Note Population Healthy Nuclei (%) for the molecule shown: CC(F)(F)CN1CCOc2c(nn(-c3ccccc3Cl)c2-c2ccc(Cl)cc2)C1=O
Result :: 66%

Query :: Note Population Healthy Nuclei (%) for the molecule shown: COCCn1c(C)c(C)s/c1=N\C(=O)C1C(C)(C)C1(C)C
Result :: 69%

----------
Tested on: U2OS
Assay: Multiplex assay against U2OS
Type: toxicity, cell-based
Settings: human, 12 h, 10 µM, compound concentration 10 uM, replicate 1
Value kind: Population Healthy Nuclei (%)
Entry rule: numbers only, all in %.

Query :: Note Population Healthy Nuclei (%) for the molecule shown: C[C@@H]1CC(=O)Nc2cccc(-c3ccc4c(c3)c(-c3cnn(C)c3)nn4C)c2N1
Result :: 58

----------
Tested on: Fibroblast
Experiment: Multiplex assay against human fibroblast
Type: toxicity, cell-based
Settings: 24 h, 10 µM, compound concentration 10 uM, replicate 2
// label = Yes if Population Mitochondria Different-Phenotype (%) is not less than 10%, otherwise No

| Molecule | Answer label |
| --- | --- |
| COCCCN1CCC(NC(=O)c2cc(Cl)c(N)c3c2OCC3)CC1 [PRUCALOPRIDE] | No |
| CN1CCC(C(=O)c2cccc(NC(=O)c3c(F)cc(F)cc3F)n2)CC1 | No |
| Cc1cc(=O)n(C)c2cc(N3C(=O)CC[C@H](NS(=O)(=O)CC(C)C)[C@H]3c3ccc(Cl)cc3)ccc12 | No |
| CCC(=O)OCC(=O)[C@@]1(OC(=O)CC)[C@@H](C)C[C@H]2[C@@H]3CCC4=CC(=O)C=C[C@]4(C)[C@@]3(Cl)[C@@H](O)C[C@@]21C [BECLOMETHASONE DIPROPIONATE] | Yes |
| Cc1cc(O)c(-c2ccc([C@@H](C)CN(C)C)cc2)c2c1[nH]c(=O)c1sccc12 | Yes |

Query :: # check: Population Mitochondria Different-Phenotype (%) of CC(C)(O)C(=O)N1CCN(c2ccc(C(F)(F)F)c(C3=C(c4c[nH]c5ccccc45)C(=O)NC3=O)c2)CC1 is greater than or equal to 10%
Result :: Yes

Query :: # check: Population Mitochondria Different-Phenotype (%) of CN(C)C(=O)Cn1cc(-c2ccc(-c3nnc4ccccn34)cc2)cn1 is greater than or equal to 10%
Result :: No
